# System: LCLC-103H
# protocol.details: relative viability (nuclei count vs DMSO), 5 days (fraction); higher = more cells survive
# reported.conditions: first compound 0.003162 µM
endpoint: relative viability
One number for each entry.

- compound: "Cc1cn(-c2cc(NC(=O)c3ccc(C)c(Nc4nccc(-c5cccnc5)n4)c3)cc(C(F)(F)F)c2)cn1 [Nilotinib] + N=C(N)NC(=N)NCCc1ccccc1 [Phenformin] (partner 250 µM)"
  endpoint: "relative viability"
  measured: 0.307

Note: attention shifts to another entry.
input: Which relative viability value belongs to Cc1cn(-c2cc(NC(=O)c3ccc(C)c(Nc4nccc(-c5cccnc5)n4)c3)cc(C(F)(F)F)c2)cn1 [Nilotinib] + Nc1nc2[nH]cc(CCc3ccc(C(=O)N[C@@H](CCC(=O)O)C(=O)O)cc3)c2c(=O)[nH]1 [Pemetrexed] (partner 0.2 µM) ?
output: 0.409

---

# System: EPLC-272H
# protocol.details: relative viability (nuclei count vs DMSO), 5 days (fraction); higher = more cells survive
# reported.conditions: first compound 2 µM
endpoint: relative viability

- molecule: "CN1CCN(CCOc2cc(OC3CCOCC3)c3c(Nc4c(Cl)ccc5c4OCO5)ncnc3c2)CC1 [Saracatinib] + CC(C)C[C@H](NC(=O)[C@H](Cc1ccccc1)NC(=O)c1cnccn1)B(O)O [Bortezomib] (partner 0.002 µM)"
  target.entity: "EPLC-272H"
  relative viability: 0.932
- molecule: "CN1CCN(CCOc2cc(OC3CCOCC3)c3c(Nc4c(Cl)ccc5c4OCO5)ncnc3c2)CC1 [Saracatinib] + Nc1nc2[nH]cc(CCc3ccc(C(=O)N[C@@H](CCC(=O)O)C(=O)O)cc3)c2c(=O)[nH]1 [Pemetrexed] (partner 0.2 µM)"
  target.entity: "EPLC-272H"
  relative viability: 0.251

Your task in this section: give relative viability for each listed record.
1. CN1CCN(CCOc2cc(OC3CCOCC3)c3c(Nc4c(Cl)ccc5c4OCO5)ncnc3c2)CC1 [Saracatinib] + COc1cc2c(Oc3ccc(NC(=O)C4(C(=O)Nc5ccc(F)cc5)CC4)cc3F)ccnc2cc1OCCCN1CCOCC1 [Foretinib] (partner 0.25 µM)
2. Cc1csc(=NC2CCCCC2)n1/N=C/c1ccc(O)c(O)c1O [MIM1] + Nc1ncn([C@H]2C[C@H](O)[C@@H](CO)O2)c(=O)n1 [Decitabine] (partner 2 µM)

output:
1: 0.435; 2: 0.375

---

# Test system: NCI-H2023
# protocol.details: relative viability (nuclei count vs DMSO), 5 days (fraction); higher = more cells survive
# reported.conditions: first compound 0.001 µM
endpoint: relative viability
Answers are plain numbers.

- molecule: "Cc1cn(-c2cc(NC(=O)c3ccc(C)c(Nc4nccc(-c5cccnc5)n4)c3)cc(C(F)(F)F)c2)cn1 [Nilotinib] + Nc1nc2[nH]cc(CCc3ccc(C(=O)N[C@@H](CCC(=O)O)C(=O)O)cc3)c2c(=O)[nH]1 [Pemetrexed] (partner 0.2 µM)"
  target.entity: "NCI-H2023"
  relative viability: 0.213

input: Which relative viability value belongs to Cc1cn(-c2cc(NC(=O)c3ccc(C)c(Nc4nccc(-c5cccnc5)n4)c3)cc(C(F)(F)F)c2)cn1 [Nilotinib] + C[C@@H](Oc1cc(-c2cnn(C3CCNCC3)c2)cnc1N)c1c(Cl)ccc(F)c1Cl [Crizotinib] (partner 1 µM) ?
output: 0.659

---

# Test system: NCI-H1793
# protocol.details: relative viability (nuclei count vs DMSO), 5 days (fraction); higher = more cells survive
# reported.conditions: first compound 0.003162 µM
Would you kindly list relative viability for each of these compounds?

Reference set, count: 2
- compound: "Cc1cn(-c2cc(NC(=O)c3ccc(C)c(Nc4nccc(-c5cccnc5)n4)c3)cc(C(F)(F)F)c2)cn1 [Nilotinib] + Nc1nc2[nH]cc(CCc3ccc(C(=O)N[C@@H](CCC(=O)O)C(=O)O)cc3)c2c(=O)[nH]1 [Pemetrexed] (partner 0.2 µM)"
  relative viability: 0.965
- compound: "Cc1cn(-c2cc(NC(=O)c3ccc(C)c(Nc4nccc(-c5cccnc5)n4)c3)cc(C(F)(F)F)c2)cn1 [Nilotinib] + CC1(C)CCC(c2ccc(Cl)cc2)=C(CN2CCN(c3ccc(C(=O)NS(=O)(=O)c4ccc(N[C@H](CCN5CCOCC5)CSc5ccccc5)c(S(=O)(=O)C(F)(F)F)c4)cc3)CC2)C1 [Navitoclax] (partner 0.5 µM)"
  relative viability: 0.452

Note: attention shifts to another entry.
input: Which relative viability value belongs to Cc1cn(-c2cc(NC(=O)c3ccc(C)c(Nc4nccc(-c5cccnc5)n4)c3)cc(C(F)(F)F)c2)cn1 [Nilotinib] + CS(=O)(=O)N1CCN(Cc2cc3nc(-c4cccc5[nH]ncc45)nc(N4CCOCC4)c3s2)CC1 [Pictilisib] (partner 1 µM) ?
output: 0.32

---

Would you kindly list relative viability for each of these compounds?
# Test system: HARA
# protocol.details: relative viability (nuclei count vs DMSO), 5 days (fraction); higher = more cells survive
# reported.conditions: first compound 0.253 µM
Give bare numbers.

Reference set, count: 2
- compound: "Nc1cccc2c1CN(C1CCC(=O)NC1=O)C2=O (stereo unspecified) [Lenalidomide] + N=C(N)NC(=N)NCCc1ccccc1 [Phenformin] (partner 250 µM)"
  target.entity: "HARA"
  measured: 0.414
- compound: "Nc1cccc2c1CN(C1CCC(=O)NC1=O)C2=O (stereo unspecified) [Lenalidomide] + Cc1cc(Nc2cc(N3CCN(C)CC3)nc(Sc3ccc(NC(=O)C4CC4)cc3)n2)n[nH]1 [Tozasertib] (partner 0.1 µM)"
  target.entity: "HARA"
  measured: 0.0944

Your task in this section: give relative viability for each listed record.
1. Nc1cccc2c1CN(C1CCC(=O)NC1=O)C2=O (stereo unspecified) [Lenalidomide] + NC(=O)Nc1cc(-c2cccc(F)c2)sc1C(=O)N[C@H]1CCCNC1 [AZD7762] (partner 0.2 µM)
2. Nc1cccc2c1CN(C1CCC(=O)NC1=O)C2=O (stereo unspecified) [Lenalidomide] + CC(=O)c1c(C)c2cnc(Nc3ccc(N4CCNCC4)cn3)nc2n(C2CCCC2)c1=O [Palbociclib] (partner 0.5 µM)

output:
1. 0.173
2. 0.253

Your task in this section: give relative viability for each listed record.
1. Nc1cccc2c1CN(C1CCC(=O)NC1=O)C2=O (stereo unspecified) [Lenalidomide] + CS(=O)(=O)CCNCc1ccc(-c2ccc3ncnc(Nc4ccc(OCc5cccc(F)c5)c(Cl)c4)c3c2)o1 [Lapatinib] (partner 2 µM)
2. Nc1cccc2c1CN(C1CCC(=O)NC1=O)C2=O (stereo unspecified) [Lenalidomide] + COc1cc2c(Oc3ccc(NC(=O)C4(C(=O)Nc5ccc(F)cc5)CC4)cc3F)ccnc2cc1OCCCN1CCOCC1 [Foretinib] (partner 0.25 µM)

output:
1. 0.775
2. 0.846

---

# Test system: NCI-H322M
# protocol.details: relative viability (nuclei count vs DMSO), 5 days (fraction); higher = more cells survive
# reported.conditions: first compound 2 µM
endpoint: relative viability
Give bare numbers.

Reference set, count: 3
- compound: "CN1CCN(CCOc2cc(OC3CCOCC3)c3c(Nc4c(Cl)ccc5c4OCO5)ncnc3c2)CC1 [Saracatinib] + COc1cc2c(Oc3ccc(NC(=O)C4(C(=O)Nc5ccc(F)cc5)CC4)cc3F)ccnc2cc1OCCCN1CCOCC1 [Foretinib] (partner 0.25 µM)"
  target.entity: "NCI-H322M"
  measured: 0.403
- compound: "CN1CCN(CCOc2cc(OC3CCOCC3)c3c(Nc4c(Cl)ccc5c4OCO5)ncnc3c2)CC1 [Saracatinib] + CC(=O)Nc1cccc(-n2c(=O)n(C3CC3)c(=O)c3c(Nc4ccc(I)cc4F)n(C)c(=O)c(C)c32)c1 [Trametinib] (partner 0.02 µM)"
  target.entity: "NCI-H322M"
  measured: 0.357
- compound: "Cc1csc(=NC2CCCCC2)n1/N=C/c1ccc(O)c(O)c1O [MIM1] + N=C(N)NC(=N)NCCc1ccccc1 [Phenformin] (partner 250 µM)"
  target.entity: "NCI-H322M"
  measured: 0.766

Note: attention shifts to another entry.
input: Which relative viability value belongs to CN1CCN(CCOc2cc(OC3CCOCC3)c3c(Nc4c(Cl)ccc5c4OCO5)ncnc3c2)CC1 [Saracatinib] + CC(=O)c1c(C)c2cnc(Nc3ccc(N4CCNCC4)cn3)nc2n(C2CCCC2)c1=O [Palbociclib] (partner 0.5 µM) ?
output: 0.306

---

# System: HCC-15
# protocol.details: relative viability (nuclei count vs DMSO), 5 days (fraction); higher = more cells survive
# reported.conditions: first compound 0.253 µM
endpoint: relative viability
Numbers only.

Reference set, count: 3
- compound: "Nc1cccc2c1CN(C1CCC(=O)NC1=O)C2=O (centres undefined) [Lenalidomide] + CCNC(=O)c1noc(-c2cc(C(C)C)c(O)cc2O)c1-c1ccc(CN2CCOCC2)cc1 [Luminespib] (partner 0.01 µM)"
  endpoint: "relative viability"
  measured: 0.485
- compound: "Nc1cccc2c1CN(C1CCC(=O)NC1=O)C2=O (centres undefined) [Lenalidomide] + C[C@@H](Oc1cc(-c2cnn(C3CCNCC3)c2)cnc1N)c1c(Cl)ccc(F)c1Cl [Crizotinib] (partner 1 µM)"
  endpoint: "relative viability"
  measured: 0.809
- compound: "Nc1cccc2c1CN(C1CCC(=O)NC1=O)C2=O (centres undefined) [Lenalidomide] + CC(=O)Nc1cccc(-n2c(=O)n(C3CC3)c(=O)c3c(Nc4ccc(I)cc4F)n(C)c(=O)c(C)c32)c1 [Trametinib] (partner 0.02 µM)"
  endpoint: "relative viability"
  measured: 0.412

Note: attention shifts to another entry.
input: Lab note: need relative viability with HCC-15 for entry Nc1cccc2c1CN(C1CCC(=O)NC1=O)C2=O (centres undefined) [Lenalidomide] + Nc1nc2[nH]cc(CCc3ccc(C(=O)N[C@@H](CCC(=O)O)C(=O)O)cc3)c2c(=O)[nH]1 [Pemetrexed] (partner 0.2 µM) , please look it up.
output: 0.219
